tested on: COLO 205 colon; assay: NCI tumour cell line growth inhibition, 48 h
testReadout: TGI

compound	endpointValue
Cc1nc(Nc2ccccn2)sc1C(=O)/C=C/c1ccc(Cl)cc1	1.35 µM
C=C1CCC2(C#N)[C@H]3[C@H](CC[C@@H]2C)[C@@H](C)C[C@@H](CC(C)(C)NC(=O)CN2CCC2=O)[C@H]13 (stereo not given in full)	13 µM
Cc1ccccc1-c1nc2c(C(=O)NCCN(C)C)cccc2[nH]1	51.9 µM
CN(Cc1cnc2nc(N)nc(N)c2n1)c1ccc(C(=O)NC(CO)CCCO)cc1 (stereo not given)	> 100 µM
O=C1CC(=O)n2cnc3cccc(c32)N1	> 100 µM

// TGI lookup, key: CCCC(=O)N[C@H]1C2C3CC4C5CC(C42)C1(C)C53 (stereo not given in full) > 100 µM

// TGI lookup, key: `COc1cccc(N=N/C(=N\NC(=O)c2ccc(C)cc2)c2ccc(N(CCC#N)CCC#N)cc2C)c1` > 100 µM

// TGI lookup, key: `C/C(=N\NC(=S)N(C)C)c1cccnn1` > 100 µM
